- testedOn: r rat cathepsin L (Rattus norvegicus, UniProt P07154)
- Sequence (P07154 114-334): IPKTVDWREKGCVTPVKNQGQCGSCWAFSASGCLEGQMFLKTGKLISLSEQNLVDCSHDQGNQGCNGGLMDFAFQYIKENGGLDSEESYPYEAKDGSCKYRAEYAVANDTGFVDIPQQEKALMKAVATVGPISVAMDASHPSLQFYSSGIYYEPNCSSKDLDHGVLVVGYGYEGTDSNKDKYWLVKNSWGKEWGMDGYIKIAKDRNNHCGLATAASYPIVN
- procedureDetails: In vitro assay for cathepsin L inhibition
- Type: biochemical
- reportedConditions: substrate N-CBZ-Phe-Arg-AMC, pH 5.0, 10 min preincubation
attributeMeasured: IC50

1) CC(C)C[C@H](NC(=O)c1cc2ccccc2s1)C(=O)NC1=CNC(c2ccccc2F)NC1=O (stereo partly shown) :: 170 nM
2) CC(C)C[C@H](NC(=O)OCc1ccccc1)C(=O)NC1=CNC(c2ccncc2)NC1=O (stereo partly shown) :: 460 nM
3) CC(C)C[C@H](NC(=O)CCc1ccccc1)C(=O)NC1=CNC2(CCCCCC2)NC1=O :: 450 nM
4) CC(C)C[C@H](NC(=O)OCc1ccccc1)C(=O)NC1=CNC(C(C)(C)C)NC1=O (stereo partly shown) :: 480 nM

// data source = patent US20040024000A1
